Measured values drawn from patent US11779567B2 for this set.

- METHOD_NOTES: Plasma escitalopram levels in Phase 1 study
- Type: in vivo, human
- CONDITION_CONTEXT: both sexes, human, plasma, oral, 20 mg/day, Cohort 4 (5-HTP 2 mg/kg, Ramped); 20 mg/day oral; mean ± SEM
- Procedure: Study Design. […] Pre-treatment with escitalopram. […] On Day 7 subjects were evaluated for general health and tolerability of escitalopram. Escitalopram compliance confirmation was evaluated by taking a blood draw for escitalopram plasma level measurements and by monitoring pill count using a diary. […] Bioanalysis. […] Plasma 5-HTP levels and plasma escitalopram levels were measured using standard liquid chromatography with tandem mass spectrometry (LC-MS-MS) methods. […]
PROPERTY_MEASURED: concentration at 21 day (ng/mL)
Entry rule: numbers only, all in ng/mL.

Given the entry CN(C)CCC[C@@]1(c2ccc(F)cc2)OCc2cc(C#N)ccc21 [Escitalopram, escitalopram] , report its measured concentration at 21 day. 28.5

###

- METHOD_NOTES: Solubility of 5-HTP
- Type: physicochemical
- CONDITION_CONTEXT: water, read-out: aqueous solubility
PROPERTY_MEASURED: solubility

For N[C@@H](Cc1c[nH]c2ccc(O)cc12)C(=O)O [5-HTP, 5-hydroxytryptophan] , what is its reported solubility? ~10000 µg/mL

###

- METHOD_NOTES: Plasma escitalopram levels in Phase 1 study
- Format: in vivo, human
- CONDITION_CONTEXT: both sexes, human, plasma, oral, 10 mg/day, Cohort 4 (5-HTP 2 mg/kg, Ramped); after 10 mg/day oral; mean ± SEM
PROPERTY_MEASURED: concentration at 7 day (ng/mL)
Give the quantity in ng/mL, number only.

Tell me the measured concentration at 7 day of CN(C)CCC[C@@]1(c2ccc(F)cc2)OCc2cc(C#N)ccc21 , please. 14.2

###

- METHOD_NOTES: Plasma escitalopram levels in Phase 1 study
- Assay type: in vivo, human
- CONDITION_CONTEXT: both sexes, human, plasma, oral, Cohort 1 (5-HTP 1 mg/kg, Constant); 20 mg/day oral; mean ± SEM
- Experimental: Study Design. […] Pre-treatment with escitalopram. […] On Day 7 subjects were evaluated for general health and tolerability of escitalopram. Escitalopram compliance confirmation was evaluated by taking a blood draw for escitalopram plasma level measurements and by monitoring pill count using a diary. […] Bioanalysis. […] Plasma 5-HTP levels and plasma escitalopram levels were measured using standard liquid chromatography with tandem mass spectrometry (LC-MS-MS) methods. […]
PROPERTY_MEASURED: concentration at 22 day (ng/mL)
Reply numerically in ng/mL, unit not repeated.

For CN(C)CCC[C@@]1(c2ccc(F)cc2)OCc2cc(C#N)ccc21 , what is its reported concentration at 22 day? 37.9

###

- METHOD_NOTES: Plasma escitalopram levels in Phase 1 study
- Format: in vivo, human
- CONDITION_CONTEXT: both sexes, human, plasma, po, 10 mg/day, Cohorts 1-5 pooled, placebo infusion instead of 5-HTP, N=10; after 10 mg/day oral; mean ± SEM
PROPERTY_MEASURED: concentration at 7 day (ng/mL)
Field: numeric (ng/mL). Do not append units.

Entry under review: CN(C)CCC[C@@]1(c2ccc(F)cc2)OCc2cc(C#N)ccc21 . Reported concentration at 7 day? 18.3

###

- METHOD_NOTES: Plasma 5-HTP pharmacokinetics of 24 h continuous IV 5-HTP infusion, Phase 1 study
- Type: in vivo, human
- CONDITION_CONTEXT: both sexes, human, plasma, intravenous, 1 mg/kg, individual subjects; Constant rate 1 mg/kg/24 hr
PROPERTY_MEASURED: AUC(0-t) (ng·h/mL)
Please reply with the bare figure in ng·h/mL and do not write the unit itself.

Returns the measured AUC(0-t) for the input compound. Input: N[C@@H](Cc1c[nH]c2ccc(O)cc12)C(=O)O [5-HTP, 5-hydroxytryptophan] 2830

###

- METHOD_NOTES: Plasma 5-HTP pharmacokinetics of 24 h continuous IV 5-HTP infusion, Phase 1 study
- Type: in vivo, human
- CONDITION_CONTEXT: both sexes, human, plasma, iv, 3 mg/kg, Cohort 2, constant rate 3 mg/kg/24 hr IV; healthy adults on escitalopram; mean, N=4 completers
PROPERTY_MEASURED: AUC(0-t) (ng·h/mL)
// note: answer is a bare numeric in ng·h/mL

AUC(0-t) for N[C@@H](Cc1c[nH]c2ccc(O)cc12)C(=O)O [5-HTP, 5-hydroxytryptophan] ? 8800

###

- METHOD_NOTES: Plasma escitalopram levels in Phase 1 study
- Type: in vivo, human
- CONDITION_CONTEXT: both sexes, human, plasma, oral, Cohort 2 (5-HTP 3 mg/kg, Constant); 20 mg/day oral; mean ± SEM
PROPERTY_MEASURED: concentration at 23 day (ng/mL)
Form entry: value (ng/mL) — number only.

State the recorded concentration at 23 day for this entry: CN(C)CCC[C@@]1(c2ccc(F)cc2)OCc2cc(C#N)ccc21 [Escitalopram, escitalopram] 30

###

- METHOD_NOTES: Safety and tolerability of IV 5-HTP continuous infusion
- Type: in vivo, human
- CONDITION_CONTEXT: human, plasma, intravenous; constant rate 3 mg/kg/24 hr; read-out: plasma 5-HTP levels within 1 h in the subjects who discontinued
PROPERTY_MEASURED: concentration at 1 h

May I ask what concentration at 1 h has been recorded for N[C@@H](Cc1c[nH]c2ccc(O)cc12)C(=O)O [5-HTP, 5-hydroxytryptophan] ? 250 to 300 ng/mL

###

- METHOD_NOTES: Plasma 5-HTP pharmacokinetics of 24 h continuous IV 5-HTP infusion, Phase 1 study
- Type: in vivo, human
- CONDITION_CONTEXT: both sexes, human, plasma, iv, 3 mg/kg, Cohort 2, constant rate 3 mg/kg/24 hr IV; healthy adults on escitalopram; mean, N=4 completers
PROPERTY_MEASURED: AUC(0-inf)
# output: number + unit

Recorded AUC(0-inf) for N[C@@H](Cc1c[nH]c2ccc(O)cc12)C(=O)O [5-HTP, 5-hydroxytryptophan] , please? 8850 ng·h/mL

###

- METHOD_NOTES: Plasma escitalopram levels in Phase 1 study
- Format: in vivo, human
- CONDITION_CONTEXT: both sexes, human, plasma, oral, 20 mg/day, Cohort 4 (5-HTP 2 mg/kg, Ramped); 20 mg/day oral; mean ± SEM
PROPERTY_MEASURED: concentration at 22 day (ng/mL)
API: value field is a number in ng/mL; no unit string.

Quick one: concentration at 22 day of CN(C)CCC[C@@]1(c2ccc(F)cc2)OCc2cc(C#N)ccc21 ? 28.8

###

- METHOD_NOTES: Plasma 5-HTP pharmacokinetics of 24 h continuous IV 5-HTP infusion, Phase 1 study
- Type: in vivo, human
- CONDITION_CONTEXT: both sexes, human, plasma, intravenous, 2 mg/kg, individual subjects; Ramp rate 2 mg/kg/24 hr
PROPERTY_MEASURED: AUC(0-inf) (ng·h/mL)
Respond with the bare value in ng·h/mL.

Dear colleague, I am looking for the recorded AUC(0-inf) of the following compound: N[C@@H](Cc1c[nH]c2ccc(O)cc12)C(=O)O [5-HTP, 5-hydroxytryptophan] 6650

###

- METHOD_NOTES: Plasma escitalopram levels in Phase 1 study
- Type: in vivo, human
- CONDITION_CONTEXT: both sexes, human, plasma, oral, 20 mg/day, Cohort 5 (5-HTP 1 mg/kg, Ramped); 20 mg/day oral; mean ± SEM
PROPERTY_MEASURED: concentration at 23 day (ng/mL)
Respond numerically; units are ng/mL and should not be typed.

Suppose we examine the molecule CN(C)CCC[C@@]1(c2ccc(F)cc2)OCc2cc(C#N)ccc21 ; what concentration at 23 day value has been reported? 29.2

###

- METHOD_NOTES: Plasma 5-HTP pharmacokinetics of 24 h continuous IV 5-HTP infusion, Phase 1 study
- Assay type: in vivo, human
- CONDITION_CONTEXT: both sexes, human, plasma, iv, 2 mg/kg, Cohort 4, ramp rate 2 mg/kg/24 hr IV; healthy adults on escitalopram; mean, N=6
PROPERTY_MEASURED: AUC(0-t) (ng·h/mL)
Number in ng·h/mL, nothing else.

Given N[C@@H](Cc1c[nH]c2ccc(O)cc12)C(=O)O [5-HTP, 5-hydroxytryptophan] , state its recorded AUC(0-t). 6330

###

- METHOD_NOTES: Plasma escitalopram levels in Phase 1 study
- Type: in vivo, human
- CONDITION_CONTEXT: both sexes, human, plasma, oral, 10 mg/day, Cohort 1 (5-HTP 1 mg/kg, Constant); after 10 mg/day oral; mean ± SEM
- Protocol: Study Design. […] Pre-treatment with escitalopram. […] On Day 7 subjects were evaluated for general health and tolerability of escitalopram. Escitalopram compliance confirmation was evaluated by taking a blood draw for escitalopram plasma level measurements and by monitoring pill count using a diary. […] Bioanalysis. […] Plasma 5-HTP levels and plasma escitalopram levels were measured using standard liquid chromatography with tandem mass spectrometry (LC-MS-MS) methods. […]
PROPERTY_MEASURED: concentration at 7 day (ng/mL)
Give the value in ng/mL but do not write ng/mL after it.

I am curious: what concentration at 7 day value has been reported for CN(C)CCC[C@@]1(c2ccc(F)cc2)OCc2cc(C#N)ccc21 ? 19.3
